Sourced from ChEMBL document CHEMBL4270527

- Tested on: Platelet
- experimentNotes: Antiplatelet activity in Wistar rat platelet rich plasma assessed as inhibition of ADP-induced platelet aggregation at 100 uM pretreated for 1 min followed by ADP addition by turbidimetric method relative to control
- Type: functional
valueType: inhibition at 100 µM
Note: a bare number is incomplete; add the unit.

O=C(N/N=C/c1ccc2no[n+]([O-])c2c1)c1cccc(N2C(=O)c3ccccc3C2=O)c1    1.2%

# input for lookup
Look up inhibition at 100 µM: `O=C(N/N=C/c1cccc(Oc2no[n+]([O-])c2S(=O)(=O)c2ccccc2)c1)c1ccc(N2C(=O)c3ccccc3C2=O)cc1`
84%

----------
- experimentNotes: Stability of the compound in pH 7.4 phosphate buffered saline assessed as compound hydrolysis after 4 hrs by UV-HPLC analysis
- Type: physicochemical
- protocolConditions: read-out: Drug degradation
valueType: degraded at 4 h
Note: a bare number is incomplete; add the unit.

Look up degraded at 4 h: `O=C(N/N=C/c1ccc(Oc2no[n+]([O-])c2S(=O)(=O)c2ccccc2)cc1)c1ccc(N2C(=O)c3ccccc3C2=O)cc1`
30%

----------
Recorded measurements of inhibition at 100 µM, one per entry
- System: Platelet
- experimentNotes: Antiplatelet activity in Wistar rat platelet rich plasma assessed as inhibition of ADP-induced platelet aggregation at 100 uM pretreated for 1 min followed by ADP addition by turbidimetric method relative to control
- Format: functional

CC(=O)Oc1ccccc1C(=O)O [ASPIRIN]    5%
O=C(N/N=C/c1c(-c2ccccc2)no[n+]1[O-])c1ccc(N2C(=O)c3ccccc3C2=O)cc1    26.5%

# input for lookup
Look up inhibition at 100 µM: `O=C(N/N=C/c1c(-c2ccccc2)no[n+]1[O-])c1ccccc1N1C(=O)c2ccccc2C1=O`
17.2%
